For reference, IC50 measured on Acetylcholinesterase (Rattus norvegicus, UniProt P37136):

compound	target_entity	output_unit	IC50
CCCn1c2c(ccc1=O)C(NCCc1c[nH]c3ccccc13)CCC2 (stereo unspecified)	Acetylcholinesterase (Rattus norvegicus, UniProt P37136)	µM	3.16
CC(C)CCn1c2c(ccc1=O)C(NCCc1ccc(Cl)c(Cl)c1)CCC2 (stereo unspecified)	Acetylcholinesterase (Rattus norvegicus, UniProt P37136)	µM	2.34
COc1ccc(CCNC2CCCc3c2ccc(=O)n3CC=C(C)C)cc1OC (stereo unspecified)	Acetylcholinesterase (Rattus norvegicus, UniProt P37136)	µM	1.64
CC(C)=CCn1c2c(ccc1=O)C(NCCc1cc(Cl)ccc1Cl)CCC2 (stereo unspecified)	Acetylcholinesterase (Rattus norvegicus, UniProt P37136)	µM	1.36
